Hello, the source for this data is patent US8106055B2, in case you need it.

# study-system: human bradykinin 1 receptor (B1R) (Homo sapiens, UniProt P46663)
# Construct: expressed in transfected cells; host or cells: CHO K1 cells
# Sequence (P46663 1-353): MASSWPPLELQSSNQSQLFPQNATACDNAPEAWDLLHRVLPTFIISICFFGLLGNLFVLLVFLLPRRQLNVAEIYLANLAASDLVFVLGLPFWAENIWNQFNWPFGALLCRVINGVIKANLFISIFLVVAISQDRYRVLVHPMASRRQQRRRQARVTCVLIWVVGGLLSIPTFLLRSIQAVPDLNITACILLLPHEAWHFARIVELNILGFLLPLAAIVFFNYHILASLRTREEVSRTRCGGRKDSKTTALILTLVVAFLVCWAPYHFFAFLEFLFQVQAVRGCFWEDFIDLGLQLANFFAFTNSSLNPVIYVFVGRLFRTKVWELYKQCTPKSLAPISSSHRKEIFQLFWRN
# assay-overview: Functional investigation on the human bradykinin 1 receptor (B1R), Ca2+ FLIPR assay in CHO K1 hB1R cells
# Type: cell-based
# setup-conditions: B1R antagonism human; test substance 10 μM; Ca2+ FLIPR, CHO K1 hB1R cells
Each record here notes measured B1R Ant. h [10 μM] % Inhibition.
Expressed in %, but write only the number.

Some entries whose results are on file:
In [3]: df
Out[3]:
                                   compound  meas_value
0  CN(CCOCC(=O)NC1CCC(C(c2ccccc2)N2CCOCC2)CC1)S(=O)(=O)c1c(Cl)cc(Cl)cc1Cl (centres unmarked) [Example 638]          37
1  CN(C)C(CCc1ccccc1)C1CCC(CNC(=O)COC2CCN(S(=O)(=O)c3ccccc3)CC2)CC1 (centres unmarked) [Example 578]         −14

query: Request: B1R Ant. h [10 μM] % Inhibition, test system human bradykinin 1 receptor (B1R) (Homo sapiens, UniProt P46663), entry COc1cc(C)c(S(=O)(=O)N2CCC(OCC(=O)NCCC3CCC(C(c4ccc(Cl)cc4)N(C)C)CC3)CC2)c(C)c1C (centres unmarked) [Example 472]
result: 1

query: Request: B1R Ant. h [10 μM] % Inhibition, test system human bradykinin 1 receptor (B1R) (Homo sapiens, UniProt P46663), entry COc1cc(C)c(S(=O)(=O)N(C)CCOCC(=O)NCCC2CCC(C(c3ccc(F)cc3)N(C)C)CC2)c(C)c1 (centres unmarked) [Example 392]
result: 104

query: Request: B1R Ant. h [10 μM] % Inhibition, test system human bradykinin 1 receptor (B1R) (Homo sapiens, UniProt P46663), entry COc1cc(C)c(S(=O)(=O)N2CCN(CCOCC(=O)NCC3CCC(C(CCc4ccccc4)N(C)C)CC3)CC2)c(C)c1C (centres unmarked) [Example 528]
result: 98

query: Request: B1R Ant. h [10 μM] % Inhibition, test system human bradykinin 1 receptor (B1R) (Homo sapiens, UniProt P46663), entry COc1cc(C)c(S(=O)(=O)N2CCC(OCC(=O)NC3CCC(C(c4cccc(F)c4)N(C)C)CC3)C2)c(C)c1 (centres unmarked) [Example 251]
result: 81

query: Request: B1R Ant. h [10 μM] % Inhibition, test system human bradykinin 1 receptor (B1R) (Homo sapiens, UniProt P46663), entry Cc1ccc(S(=O)(=O)N(C)CCOCC(=O)NCC2CCC(C(c3cccc(F)c3)N(C)C)CC2)cc1 (centres unmarked) [Example 227]
result: 6

* * *

# study-system: bradykinin 1 receptor (B1R) of the rat (Rattus norvegicus)
# Construct: expressed in transfected cells; host or cells: CHO K1 cells
# Sequence (P97583 whole entry): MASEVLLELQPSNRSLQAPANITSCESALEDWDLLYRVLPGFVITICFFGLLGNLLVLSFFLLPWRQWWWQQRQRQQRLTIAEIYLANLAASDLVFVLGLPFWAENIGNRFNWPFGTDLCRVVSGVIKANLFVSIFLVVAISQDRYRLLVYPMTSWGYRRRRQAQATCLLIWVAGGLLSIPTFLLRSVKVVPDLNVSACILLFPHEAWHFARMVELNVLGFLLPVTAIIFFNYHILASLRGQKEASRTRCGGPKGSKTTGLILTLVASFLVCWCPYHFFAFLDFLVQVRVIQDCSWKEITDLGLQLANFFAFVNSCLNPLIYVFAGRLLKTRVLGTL
# assay-overview: Functional investigation on the rat bradykinin 1 receptor (B1R), Ca2+ FLIPR assay in CHO K1 rB1R cells
# Format: cell-based
# setup-conditions: CHO-K1, B1R antagonism rat; test substance 10 μM; Ca2+ FLIPR, CHO K1 rB1R cells; read-out: B1R Ant. r [10 μM] % Inhibition
# cutoff 20% applies to inhibition at 10 µM; >= gives Met, < gives Not met

>>> print(df.to_string())
                                   compound      cat
0  CN(C)C(c1cccc(F)c1)C1CCC(NC(=O)COC2CCCCC2N(C)S(=O)(=O)c2ccc(Cl)c(Cl)c2)CC1 (stereo not shown) [Example 132]  Not met
1  CN(C)C(c1ccccc1)C1CCC(CNC(=O)COCC2CCCCN2S(=O)(=O)c2ccc(Cl)c(Cl)c2)CC1 (stereo not shown) [Example 17]      Met
2  CN(C)C(CCc1ccccc1)C1CCC(NC(=O)CNC(=O)c2nc(-c3cccs3)no2)CC1 (stereo not shown) [Example 784]  Not met
3  COc1ccc(S(=O)(=O)N2CCCCC2COCC(=O)NCC2CCC(C(c3cccs3)N(C)C)CC2)cc1 (stereo not shown) [Example 45]      Met
4  CN(C)C(c1cccc(F)c1)C1CCC(CNC(=O)COCCN(C)S(=O)(=O)c2c(Cl)cccc2Cl)CC1 (stereo not shown) [Example 72]      Met
5  CN(CCOCC(=O)NCC1CCC(C(c2ccccc2)N2CCOCC2)CC1)S(=O)(=O)c1c(Cl)cc(Cl)cc1Cl (stereo not shown) [Example 639]      Met

query: Threshold query (inhibition at 10 µM >= 20%) on COc1ccc(S(=O)(=O)N2CCCCC2CCOCC(=O)NCCC2CCC(C(c3cccs3)N(C)C)CC2)cc1 (stereo not shown) [Example 46]
result: Met

query: Threshold query (inhibition at 10 µM >= 20%) on COc1cc(C)c(S(=O)(=O)N2CCC(CCOCC(=O)NC3CCC(C(c4cccs4)N(C)C)CC3)CC2)c(C)c1C (stereo not shown) [Example 5]
result: Not met

query: Threshold query (inhibition at 10 µM >= 20%) on CN(C)C(c1cccs1)C1CCC(CCNC(=O)COCCN(Cc2ccccc2)S(=O)(=O)c2ccccc2)CC1 (stereo not shown) [Example 116]
result: Not met

query: Threshold query (inhibition at 10 µM >= 20%) on O=C(COCC1CCCN1S(=O)(=O)c1c(Cl)cc(Cl)cc1Cl)NCC1CCC(C(CCc2ccccc2)N2CCOCC2)CC1 (stereo not shown) [Example 751]
result: Met

query: Threshold query (inhibition at 10 µM >= 20%) on CN(CCOCC(=O)NCC1CCC(C(c2ccccc2)N2CCCC2)CC1)S(=O)(=O)c1ccc(Cl)cc1Cl (stereo not shown) [Example 641]
result: Met

query: Threshold query (inhibition at 10 µM >= 20%) on CN1CCN(C(c2ccccc2)C2CCC(NC(=O)COCCN(C)S(=O)(=O)c3c(Cl)cc(C(F)(F)F)cc3Cl)CC2)CC1 (stereo not shown) [Example 690]
result: Met

query: Threshold query (inhibition at 10 µM >= 20%) on CN1CCN(C(c2ccccc2)C2CCC(NC(=O)COCC3CCCCN3S(=O)(=O)c3c(Cl)cc(Cl)cc3Cl)CC2)CC1 (stereo not shown) [Example 739]
result: Met

* * *

# study-system: human bradykinin 1 receptor (B1R) (Homo sapiens, UniProt P46663)
# Construct: expressed in transfected cells; host or cells: CHO K1 cells
# assay-overview: Functional investigation on the human bradykinin 1 receptor (B1R), Ca2+ FLIPR assay in CHO K1 hB1R cells
# Type: cell-based
# setup-conditions: CHO-K1, B1R antagonism human; test substance 10 μM; Ca2+ FLIPR, CHO K1 hB1R cells; read-out: B1R Ant. h [10 μM] % Inhibition
assay-readout: inhibition at 10 µM

Some entries whose results are on file:
>>> df
                                   molecule        assay_readout  meas_value
0  COc1cc(C)c(S(=O)(=O)N(C)CCOCC(=O)NC2CCC(C(c3ccccc3)N3CCN(C)CC3)CC2)c(C)c1 (stereo not shown)  inhibition at 10 µM        104%
1  CN(C)C(c1ccccc1)C1CCC(CNC(=O)CCOCN(C)S(=O)(=O)c2c(Cl)cc(Cl)cc2Cl)CC1 (stereo not shown)  inhibition at 10 µM        104%

query: For COc1ccc(-c2noc(C(=O)NCC(=O)NC3CCC(C(c4ccccc4)N(C)C)CC3)n2)cc1OC (stereo not shown) , what is its reported inhibition at 10 µM?
result: -7%

query: For CN(C)C(c1ccccc1)C1CCC(NC(=O)COCC2CCCCN2S(=O)(=O)c2cccc(Cl)c2Cl)CC1 (stereo not shown) , what is its reported inhibition at 10 µM?
result: 99%

query: For CN(CCOCC(=O)NC1CCC(C(c2ccccc2)N2CCCCC2)CC1)S(=O)(=O)c1c(Cl)cc(Cl)cc1Cl (stereo not shown) , what is its reported inhibition at 10 µM?
result: 78%

query: For CN(C)C(c1ccccc1)C1CCC(CNC(=O)COCCN(C)S(=O)(=O)c2cccc(C(F)(F)F)c2)CC1 (stereo not shown) , what is its reported inhibition at 10 µM?
result: 42%

query: For Cc1cc(C)c(S(=O)(=O)N2CCC(OCC(=O)NCC3CCC(C(c4ccccc4)N(C)C)CC3)C2)c(C)c1 (stereo not shown) , what is its reported inhibition at 10 µM?
result: 51%
